Taken from patent US4568490A.

- Tested on: Lymphocytic leukemia P-388
- test-protocol: In vivo antitumor activity, murine lymphocytic leukemia P-388
- assay-conditions: BDF1-SLC mice, i.p. transplant, once daily for 9 days, 30 days observation; T/C more than 130 effective
quantity-name: Max. T/C on Mouse Lymphocytic Leukemia P 388 (%)

| compound | experimental-target | unit-label | numeric-value |
| --- | --- | --- | --- |
| CC[N+](CC)(CCCNC(=O)c1csc(-c2csc(CCNC(=O)C(NC(=O)C(C)C(O)C(C)NC(=O)C(NC(=O)c3nc(C(CC(N)=O)NCC(N)C(N)=O)nc(N)c3C)C(OC3OC(CO)C(O)C(O)C3OC3OC(CO)C(O)C(OC(N)=O)C3O)c3cnc[nH]3)C(C)O)n2)n1)CCCN(Cc1ccccc1)Cc1ccccc1 (centres unmarked) | Lymphocytic leukemia P-388 | % | 168 |
| Cc1c(N)nc(C(CC(N)=O)NCC(N)C(N)=O)nc1C(=O)NC(C(=O)NC(C)C(O)C(C)C(=O)NC(C(=O)NCCc1nc(-c2nc(C(=O)NCCC[N+](C)(C)CCCN(Cc3ccccc3)Cc3ccccc3)cs2)cs1)C(C)O)C(OC1OC(CO)C(O)C(O)C1OC1OC(CO)C(O)C(OC(N)=O)C1O)c1cnc[nH]1 (centres unmarked) | Lymphocytic leukemia P-388 | % | 153 |
| Cc1c(N)nc(C(CC(N)=O)NCC(N)C(N)=O)nc1C(=O)NC(C(=O)NC(C)C(O)C(C)C(=O)NC(C(=O)NCCc1nc(-c2nc(C(=O)NCCCN(C)CCCNCC3CCCCCCC3)cs2)cs1)C(C)O)C(OC1OC(CO)C(O)C(O)C1OC1OC(CO)C(O)C(OC(N)=O)C1O)c1cnc[nH]1.Cl.Cl.Cl (centres unmarked) | Lymphocytic leukemia P-388 | % | 174 |
| Cc1c(N)nc(C(CC(N)=O)NCC(N)C(N)=O)nc1C(=O)NC(C(=O)NC(C)C(O)C(C)C(=O)NC(C(=O)NCCc1nc(-c2nc(C(=O)NCCC[N+](C)(C)CCCNCC3CCCCCCC3)cs2)cs1)C(C)O)C(OC1OC(CO)C(O)C(O)C1OC1OC(CO)C(O)C(OC(N)=O)C1O)c1cnc[nH]1 (centres unmarked) | Lymphocytic leukemia P-388 | % | 150 |
| Cc1c(N)nc(C(CC(N)=O)NCC(N)C(N)=O)nc1C(=O)NC(C(=O)NC(C)C(O)C(C)C(=O)NC(C(=O)NCCc1nc(-c2nc(C(=O)NCCCN3CCN(CCCN(Cc4ccccc4)Cc4ccccc4)CC3)cs2)cs1)C(C)O)C(OC1OC(CO)C(O)C(O)C1OC1OC(CO)C(O)C(OC(N)=O)C1O)c1cnc[nH]1 (centres unmarked) | Lymphocytic leukemia P-388 | % | 182 |

---

- Test system: ICR strain mice
- test-protocol: Pulmonary toxicity (pulmonary fibrosis) in mice, intraperitoneal injection
- Format: in vivo
- assay-conditions: 5 mg/kg i.p. once a day for 10 days; autopsy after 5 weeks; score 0-6 points
A collection of compounds and their measured Grade: total score of pulmonary fibrosis/total number of test animal
quantity-name: Grade: total score of pulmonary fibrosis/total number of test animal

| compound | result |
| --- | --- |
| Cc1c(N)nc(C(CC(N)=O)NCC(N)C(N)=O)nc1C(=O)NC(C(=O)NC(C)C(O)C(C)C(=O)NC(C(=O)NCCc1nc(-c2nc(C(=O)NCCCN(C)CCCNCC3CCCCCCCCCCCC3)cs2)cs1)C(C)O)C(OC1OC(CO)C(O)C(O)C1OC1OC(CO)C(O)C(OC(N)=O)C1O)c1cnc[nH]1 (stereo not shown) | 0/27 |
| Cc1c(N)nc(C(CC(N)=O)NCC(N)C(N)=O)nc1C(=O)NC(C(=O)NC(C)C(O)C(C)C(=O)NC(C(=O)NCCc1nc(-c2nc(C(=O)NCCCN(C)CCCN(Cc3ccc(OCc4ccc(OCc5ccccc5)cc4)cc3)Cc3ccc(OCc4ccc(OCc5ccccc5)cc4)cc3)cs2)cs1)C(C)O)C(OC1OC(CO)C(O)C(O)C1OC1OC(CO)C(O)C(OC(N)=O)C1O)c1cnc[nH]1 (stereo not shown) | 0/27 |
| Cc1c(N)nc(C(CC(N)=O)NCC(N)C(N)=O)nc1C(=O)NC(C(=O)NC(C)C(O)C(C)C(=O)NC(C(=O)NCCc1nc(-c2nc(C(=O)NCCCN(C)CCCNCC3CCCCCCC3)cs2)cs1)C(C)O)C(OC1OC(CO)C(O)C(O)C1OC1OC(CO)C(O)C(OC(N)=O)C1O)c1cnc[nH]1.Cl.Cl.Cl (stereo not shown) | 0/27 |
| Cc1c(N)nc(C(CC(N)=O)NCC(N)C(N)=O)nc1C(=O)NC(C(=O)NC(C)C(O)C(C)C(=O)NC(C(=O)NCCc1nc(-c2nc(C(=O)NCCCN(C)CCCNCCc3ccc(Cl)cc3)cs2)cs1)C(C)O)C(OC1OC(CO)C(O)C(O)C1OC1OC(CO)C(O)C(OC(N)=O)C1O)c1cnc[nH]1 (stereo not shown) | 3/27 |
| Cc1c(N)nc(C(CC(N)=O)NCC(N)C(N)=O)nc1C(=O)NC(C(=O)NC(C)C(O)C(C)C(=O)NC(C(=O)NCCc1nc(-c2nc(C(=O)NCCCN(C)CCCNCc3ccc(Cl)cc3Cl)cs2)cs1)C(C)O)C(OC1OC(CO)C(O)C(O)C1OC1OC(CO)C(O)C(OC(N)=O)C1O)c1cnc[nH]1 (stereo not shown) | 2/27 |
| Cc1c(N)nc(C(CC(N)=O)NCC(N)C(N)=O)nc1C(=O)NC(C(=O)NC(C)C(O)C(C)C(=O)NC(C(=O)NCCc1nc(-c2nc(C(=O)NCCC[N+](C)(C)CCC[N+](C)(C)CCCNCC3CCCCCCC3)cs2)cs1)C(C)O)C(OC1OC(CO)C(O)C(O)C1OC1OC(CO)C(O)C(OC(N)=O)C1O)c1cnc[nH]1 (stereo not shown) | 0/27 |
| CC[N+](CC)(CCCNCCc1ccc(Cl)cc1)CCCNC(=O)c1csc(-c2csc(CCNC(=O)C(NC(=O)C(C)C(O)C(C)NC(=O)C(NC(=O)c3nc(C(CC(N)=O)NCC(N)C(N)=O)nc(N)c3C)C(OC3OC(CO)C(O)C(O)C3OC3OC(CO)C(O)C(OC(N)=O)C3O)c3cnc[nH]3)C(C)O)n2)n1 (stereo not shown) | 0/27 |
| Cc1c(N)nc(C(CC(N)=O)NCC(N)C(N)=O)nc1C(=O)NC(C(=O)NC(C)C(O)C(C)C(=O)NC(C(=O)NCCc1nc(-c2nc(C(=O)NCCCN(C)CCCNCc3ccc(Cl)c(Cl)c3)cs2)cs1)C(C)O)C(OC1OC(CO)C(O)C(O)C1OC1OC(CO)C(O)C(OC(N)=O)C1O)c1cnc[nH]1 (stereo not shown) | 1/27 |
| Cc1c(N)nc(C(CC(N)=O)NCC(N)C(N)=O)nc1C(=O)NC(C(=O)NC(C)C(O)C(C)C(=O)NC(C(=O)NCCc1nc(-c2nc(C(=O)NCCCN3CCN(CCCNCc4ccc(Cl)cc4)CC3)cs2)cs1)C(C)O)C(OC1OC(CO)C(O)C(O)C1OC1OC(CO)C(O)C(OC(N)=O)C1O)c1cnc[nH]1 (stereo not shown) | 0/27 |
| Cc1c(N)nc(C(CC(N)=O)NCC(N)C(N)=O)nc1C(=O)NC(C(=O)NC(C)C(O)C(C)C(=O)NC(C(=O)NCCc1nc(-c2nc(C(=O)NCCC[N+](C)(CCCN(Cc3ccccc3)Cc3ccccc3)Cc3ccccc3)cs2)cs1)C(C)O)C(OC1OC(CO)C(O)C(O)C1OC1OC(CO)C(O)C(OC(N)=O)C1O)c1cnc[nH]1 (stereo not shown) | 0/27 |
| COc1ccc(COc2ccc(CN(CCCN(C)CCCNC(=O)c3csc(-c4csc(CCNC(=O)C(NC(=O)C(C)C(O)C(C)NC(=O)C(NC(=O)c5nc(C(CC(N)=O)NCC(N)C(N)=O)nc(N)c5C)C(OC5OC(CO)C(O)C(O)C5OC5OC(CO)C(O)C(OC(N)=O)C5O)c5cnc[nH]5)C(C)O)n4)n3)Cc3ccc(OCc4ccc(OC)cc4)c(OCc4ccc(OC)cc4)c3)cc2OCc2ccc(OC)cc2)cc1 (stereo not shown) | 0/27 |
| Cc1c(N)nc(C(CC(N)=O)NCC(N)C(N)=O)nc1C(=O)NC(C(=O)NC(C)C(O)C(C)C(=O)NC(C(=O)NCCc1nc(-c2nc(C(=O)NCCCN3CCN(CCCNCC4CCCCCCC4)CC3)cs2)cs1)C(C)O)C(OC1OC(CO)C(O)C(O)C1OC1OC(CO)C(O)C(OC(N)=O)C1O)c1cnc[nH]1 (stereo not shown) | 0/27 |
| Cc1c(N)nc(C(CC(N)=O)NCC(N)C(N)=O)nc1C(=O)NC(C(=O)NC(C)C(O)C(C)C(=O)NC(C(=O)NCCc1nc(-c2nc(C(=O)NCCCN(C)CCCN)cs2)cs1)C(C)O)C(OC1OC(CO)C(O)C(O)C1OC1OC(CO)C(O)C(OC(N)=O)C1O)c1cnc[nH]1 (stereo not shown) [APMP, reference compound] | 48/27 |
